# System: Escherichia coli TOP10
# protocol.notes: shrunken log2 fold change of peptide-encoding DNA abundance (4.5 h post-induction vs induction); higher = less antimicrobial activity (less host growth inhibition)
# conditions: time post-induction: 4.5 h; library: site-saturation at positions 5, 18, 19, 20
Quick list: shrunken log2 fold change per entry.
assay.metric: shrunken log2 fold change

[
  {
    "residues": "RRIRCRPPRLPRPRPRPICQPRP",
    "test.result": -0.0542
  },
  {
    "residues": "RRIRKRPPRLPRPRPRPYNIPRP",
    "test.result": -0.133
  },
  {
    "residues": "RRIRGRPPRLPRPRPRPQCWPRP",
    "test.result": 0.623
  },
  {
    "residues": "RRIRARPPRLPRPRPRPQNGPRP",
    "test.result": -0.106
  },
  {
    "residues": "RRIRQRPPRLPRPRPRPAERPRP",
    "test.result": 0.179
  },
  {
    "residues": "RRIRVRPPRLPRPRPRPSGGPRP",
    "test.result": 0.104
  },
  {
    "residues": "RRIRRRPPRLPRPRPRPPRMPRP",
    "test.result": 0.94
  },
  {
    "residues": "RRIRHRPPRLPRPRPRPECCPRP",
    "test.result": 0.203
  }
]

* * *

# System: Escherichia coli TOP10;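 further: peptides expressed intracellularly from a pBAD plasmid library in pooled LB shake-flask culture, induced with 0.3% L-arabinose, DNA abundance read by NGS, three biological replicates, DESeq2 with apeglm shrinkage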
# protocol.notes: shrunken log2 fold change of peptide-encoding DNA abundance (4.5 h post-induction vs induction); higher = less antimicrobial activity (less host growth inhibition)
# conditions: time post-induction: 4.5 h; library: site-saturation at positions 5, 18, 19, 20
Lab note: compare shrunken log2 fold change against 0.06. Equal or greater, write Fulfilled. Smaller, write Not fulfilled.

[
  {
    "residues": "RRIRARPPRLPRPRPRPDTKPRP",
    "category": "Not fulfilled"
  },
  {
    "residues": "RRIRHRPPRLPRPRPRPLDAPRP",
    "category": "Not fulfilled"
  },
  {
    "residues": "RRIRWRPPRLPRPRPRPPWKPRP",
    "category": "Fulfilled"
  },
  {
    "residues": "RRIRYRPPRLPRPRPRPQKRPRP",
    "category": "Not fulfilled"
  },
  {
    "residues": "RRIRFRPPRLPRPRPRPRVGPRP",
    "category": "Fulfilled"
  },
  {
    "residues": "RRIRWRPPRLPRPRPRPRKNPRP",
    "category": "Not fulfilled"
  },
  {
    "residues": "RRIRNRPPRLPRPRPRPHAMPRP",
    "category": "Not fulfilled"
  },
  {
    "residues": "RRIRMRPPRLPRPRPRPALPPRP",
    "category": "Fulfilled"
  },
  {
    "residues": "RRIRWRPPRLPRPRPRPDALPRP",
    "category": "Fulfilled"
  },
  {
    "residues": "RRIRARPPRLPRPRPRPPNEPRP",
    "category": "Fulfilled"
  },
  {
    "residues": "RRIRCRPPRLPRPRPRPFFVPRP",
    "category": "Not fulfilled"
  },
  {
    "residues": "RRIRHRPPRLPRPRPRPYYDPRP",
    "category": "Not fulfilled"
  },
  {
    "residues": "RRIRLRPPRLPRPRPRPGCEPRP",
    "category": "Fulfilled"
  },
  {
    "residues": "RRIRKRPPRLPRPRPRPTPGPRP",
    "category": "Fulfilled"
  },
  {
    "residues": "RRIRRRPPRLPRPRPRPCSAPRP",
    "category": "Fulfilled"
  },
  {
    "residues": "RRIRHRPPRLPRPRPRPTWRPRP",
    "category": "Fulfilled"
  },
  {
    "residues": "RRIRLRPPRLPRPRPRPFPGPRP",
    "category": "Fulfilled"
  },
  {
    "residues": "RRIRTRPPRLPRPRPRPRLGPRP",
    "category": "Fulfilled"
  },
  {
    "residues": "RRIRDRPPRLPRPRPRPAMVPRP",
    "category": "Fulfilled"
  },
  {
    "residues": "RRIRDRPPRLPRPRPRPDAPPRP",
    "category": "Fulfilled"
  },
  {
    "residues": "RRIRPRPPRLPRPRPRPSAHPRP",
    "category": "Not fulfilled"
  },
  {
    "residues": "RRIRCRPPRLPRPRPRPLCEPRP",
    "category": "Not fulfilled"
  },
  {
    "residues": "RRIRLRPPRLPRPRPRPCGVPRP",
    "category": "Not fulfilled"
  },
  {
    "residues": "RRIRERPPRLPRPRPRPDGCPRP",
    "category": "Not fulfilled"
  },
  {
    "residues": "RRIRKRPPRLPRPRPRPRFCPRP",
    "category": "Fulfilled"
  },
  {
    "residues": "RRIRMRPPRLPRPRPRPRRNPRP",
    "category": "Fulfilled"
  },
  {
    "residues": "RRIRHRPPRLPRPRPRPGDPPRP",
    "category": "Fulfilled"
  },
  {
    "residues": "RRIRWRPPRLPRPRPRPTYYPRP",
    "category": "Not fulfilled"
  },
  {
    "residues": "RRIRYRPPRLPRPRPRPLFRPRP",
    "category": "Not fulfilled"
  },
  {
    "residues": "RRIRDRPPRLPRPRPRPETRPRP",
    "category": "Fulfilled"
  },
  {
    "residues": "RRIRYRPPRLPRPRPRPAHMPRP",
    "category": "Not fulfilled"
  }
]

The reported measurements were obtained from the supplement of paper PMC9112550.
